experiment: protein stability index of a GFP-peptide fusion (GPS, HEK-293T) (PSI 1-6); higher = more stable; details: treatment: DMSO; c terminus: a fixed tail appended;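 note: 24-mer peptide tiles fused after GFP, lentivirally expressed, FACS-sorted into six equal bins by GFP/DsRed ratio, decoded by Illumina sequencing, PSI is the read-weighted mean bin number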
propertyMeasured: protein stability index
The answer should be written as a number, with no unit following it.

Illustrative cases are given below, each with its answer.
sequenceChain	protein stability index
NRLMLAVRDMMANFHLNDLEAPHE [TCF25]	2.5
APGVDLSRILNEMRDQYEQMAEKN [KRT16]	4.27
VLLAVLPVLLLQITVGLVFLCLQY [MOG]	3.18
RGRFTTYEIRVKTNLPIFKLKEST [SNX3]	2.54
DHSFSLELGSEVDITEGDRKPDYT [ATF4]	5.2

Would you mind telling me what protein stability index value was observed for DTLQNDYFAIKQEVVTPDNMCMGR [ETS1] ?
3.65

Next sequence up: SRGACTSHDPQSSRGSRRRRRQRS [KCNA4]
5.39

Note, next up: HSRVAKPHQREKIDKEIELHRILH [PLK2]
3.42

Would you mind doing VLEGPAPWGFRLQGGKDFNVPLSI [PDLIM7] as well?
2.31

Can you handle SSVQSYPGSASLAQSRLEDPGQDL [DLX1] next?
4.89

Similarly, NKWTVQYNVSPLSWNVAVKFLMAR [PTPN9] ?
2.47

Thanks! And KQASNLETAIADAEQRGDNALKDA [KRT71] ?
5.66

Same again, this time with ECIYIIEAAPRQCIELYFDEKYSI [NETO1]
3.08

Field entry: MSLRNRLSKSRENPEEDEDQRNPA [SOAT1]
5.58

Now consider ACLIVMFLPEKKDTGVFAVVNSHS [SLC22A15] .
3.22

Could you do the same for DRLTTFQENQARTHVLSKEVQHLR [LRRC45] , please?
4.12

Param item: TARPFGAPPPADSAPQQNGQPLRP [PDLIM7]
4.84

Same read-out for FIPSLKYVQWSLPFIVFGATGLTS [SLC22A15] ?
3.14

One more sequence: SCKENCTCSSCLLRAPTISDLLND [EDARADD]
4.85

Please answer likewise for RLQVVKLLAKMFGAKDSELASQNK [PDS5B]
2.11

Also, DMSYSIRHSISMPAMRNSPTFKSF [TPD52L1] please.
2.94

// query: MKQLQQQQHSDKTSLQGLTGTPLV [ISL2]
4.01

Also, HLLEAEPLSPIQASSVHLKSESSL please.
4.16

And then DSVDAQNICHVWHMNVEALPEWIS [RNF180] , what is it?
2.44

And EKPIGSCVTNPCGPRSRCGPCNTF [KRT33B] ?
2.34

// same read-out, input: SEFQAALSRKVAELVHFLLLKYRA [MAGEA3]
2.57

// same read-out, input: RHRIPEPEAAVLFRQMATALAHCH [TRIB3]
2.48

Origin of the recorded values: the supplement of paper PMC10567573
